Biological target: Factor XIa (Homo sapiens)
Assay: Factor XIa inhibition assay utilizing a fluorophore-quencher pair peptide substrate (FLINT)
Assay type: biochemical
Details: 30 min preincubation, 5Fam-KLTRAETV-K5Tamra substrate 15 μM final, kinetic reads; read-out: FXIa IC50
observation_type: IC50
Give your result as the value with the unit written after it.

1) Cn1ccc(-c2cnc([C@H](CC3CC3)n3cc4c(cc3=O)-c3c(ccc(Cl)c3F)CC3(CC3)NC4=O)[nH]2)cc1=O (single isomer, unassigned) [Compound 69]    108 nM
2) COC(=O)Nc1ccc(-c2cnc([C@H](CC3CC3)n3cc4c(cc3=O)-c3c(ccc(Cl)c3F)CC3(CC3)NC4=O)[nH]2)cc1 [Compound 61]    1 nM

Exam item: Which value of IC50 has been reported for O=C1NC2(CC2)Cc2ccc(Cl)c(F)c2-c2cc(=O)n(C(CC3CC3)c3ncc(-c4ccncc4)[nH]3)cc21 (single isomer, unassigned) [Compound 66] in the records?
Marked response: 183 nM

----------
Target: Factor XIa (Homo sapiens)
Assay: Factor XIa inhibition assay utilizing a fluorophore-quencher pair peptide substrate (FLINT)
Assay type: biochemical
Details: cells that print μM themselves in the nM column; read-out: FXIa Ki
Collected Ki values appear next to each entry.
Kindly answer with a numeric value in µM, unit omitted.

Exam item: Which value of Ki has been reported for O=C1NC2(CC2)Cc2ccc(Cl)c(F)c2-c2cc(=O)n(C(CC3CC3)c3ncc(-c4cc[n+]([O-])cc4)[nH]3)cc21 (single isomer, unassigned) in the records?
Marked response: 4.84

Exam item: Which value of Ki has been reported for O=C1NC2(CC2)Cc2ccc(Cl)c(F)c2-c2cc(=O)n3c(c21)CC[C@@H]3c1ncc(-c2ccc3[nH]ccc3c2)[nH]1 (single isomer, unassigned) in the records?
Marked response: 1.02

Exam item: Which value of Ki has been reported for Nc1ccc(-c2cnc([C@@H]3CCc4c5c(cc(=O)n43)-c3c(ccc(Cl)c3F)CCNC5=O)[nH]2)c(Cl)n1 (stereo in doubt) in the records?
Marked response: 1.29

----------
Molecular target: human plasma kallikrein (Homo sapiens, UniProt P03952)
Sequence (P03952 391-638 limits assumed): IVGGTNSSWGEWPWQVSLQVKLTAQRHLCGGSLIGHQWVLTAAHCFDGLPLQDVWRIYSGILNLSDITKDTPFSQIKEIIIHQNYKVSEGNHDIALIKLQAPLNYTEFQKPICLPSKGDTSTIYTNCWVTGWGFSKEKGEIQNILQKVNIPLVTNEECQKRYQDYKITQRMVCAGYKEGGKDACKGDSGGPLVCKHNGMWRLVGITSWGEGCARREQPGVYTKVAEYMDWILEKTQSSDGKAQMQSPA
Sequence (P03952 20-390 partner limits assumed): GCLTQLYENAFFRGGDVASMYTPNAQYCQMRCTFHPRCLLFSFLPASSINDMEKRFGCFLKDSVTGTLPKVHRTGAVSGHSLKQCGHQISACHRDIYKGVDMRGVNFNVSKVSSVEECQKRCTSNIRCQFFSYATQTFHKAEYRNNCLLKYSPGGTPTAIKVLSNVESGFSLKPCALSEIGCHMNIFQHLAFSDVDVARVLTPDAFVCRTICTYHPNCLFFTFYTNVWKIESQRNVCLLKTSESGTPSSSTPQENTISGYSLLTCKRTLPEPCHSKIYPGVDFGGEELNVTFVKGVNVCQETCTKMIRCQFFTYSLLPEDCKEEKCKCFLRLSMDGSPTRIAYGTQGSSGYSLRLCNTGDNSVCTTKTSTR
Assay: Kallikrein inhibition assay utilizing a quenched AMC peptide substrate (FLINT)
Conditions: 30 min preincubation, 50 μM Z-Gly-Pro-Arg-AMC, 2 nM kallikrein
pIC50: −log10 of the molar value.
# label = y if pIC50 >= 6 else n

Known results for compounds:
1) O=C1NC2(CC2)Cc2ccc(Cl)c(F)c2-c2cc(=O)n3c(c21)CC[C@H]3c1ncc(-c2ccn3ccnc3c2)[nH]1 (stereo in doubt)    y
2) Cn1ccc(-c2cnc(C(CC3CC3)n3cc4c(cc3=O)-c3c(ccc(Cl)c3F)CC3(CC3)NC4=O)[nH]2)cc1=O (single isomer, unassigned)    n
3) Nc1ccc(-c2cnc(C3CCc4c5c(cc(=O)n43)-c3c(ccc(Cl)c3F)-c3ccncc3NC5=O)[nH]2)c(F)n1 (single isomer, unassigned) [Compound 36]    n
4) Nc1ccc(-c2cnc(C3CCc4c5c(cc(=O)n43)-c3c(ccc(Cl)c3F)-c3ccccc3NC5=O)[nH]2)c(F)n1 (single isomer, unassigned) [Compound 38]    n
5) O=C1NC2(CC2)Cc2ccc(Cl)c(F)c2-c2cc(=O)n3c(c21)CC[C@@H]3c1ncc(-c2ccn3ccnc3c2)[nH]1 (stereo in doubt)    y
6) CC1(C)Cc2ccc(Cl)c(F)c2-c2cc(=O)n3c(c2C(=O)N1)CC[C@@H]3c1ncc(-c2ccc(N)nc2F)[nH]1 (single isomer, unassigned) [Compound 28]    n

Exam item: Item O=C1NC2(CC2)Cc2ccc(Cl)c(F)c2-c2cc(=O)n3c(c21)CC[C@@H]3c1ncc(-c2ccc3cncn3c2)[nH]1 (stereo in doubt) with pIC50 of 6 or above?
Marked response: n

Exam item: Item O=C1NC2(CC2)Cc2ccc(Cl)c(F)c2-c2cc(=O)n(C(CC3CC3)c3ncc(-c4cc[n+]([O-])cc4)[nH]3)cc21 (single isomer, unassigned) [Compound 56] with pIC50 of 6 or above?
Marked response: n

Exam item: Item COC(=O)Nc1ccc(-c2cnc([C@H](CC3CC3)n3cc4c(cc3=O)-c3c(ccc(Cl)c3F)CC3(CC3)NC4=O)[nH]2)cc1 with pIC50 of 6 or above?
Marked response: y

Exam item: Item CC1(C)Cc2ccc(Cl)c(F)c2-c2cc(=O)n3c(c2C(=O)N1)CC[C@H]3c1ncc(-c2ccc(N)nc2F)[nH]1 (single isomer, unassigned) [Compound 20] with pIC50 of 6 or above?
Marked response: n

----------
Collected Ki values appear next to each entry.
Biological target: Factor XIa (Homo sapiens, UniProt P03951)
Sequence (P03951 388-625 limits assumed): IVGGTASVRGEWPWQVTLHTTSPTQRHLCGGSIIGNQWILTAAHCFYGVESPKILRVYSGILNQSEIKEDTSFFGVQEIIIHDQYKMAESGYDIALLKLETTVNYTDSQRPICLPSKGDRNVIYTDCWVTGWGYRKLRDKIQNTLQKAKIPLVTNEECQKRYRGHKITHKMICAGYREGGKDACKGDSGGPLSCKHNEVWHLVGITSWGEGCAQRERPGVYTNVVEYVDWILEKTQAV
Sequence (P03951 19-387 partner limits assumed): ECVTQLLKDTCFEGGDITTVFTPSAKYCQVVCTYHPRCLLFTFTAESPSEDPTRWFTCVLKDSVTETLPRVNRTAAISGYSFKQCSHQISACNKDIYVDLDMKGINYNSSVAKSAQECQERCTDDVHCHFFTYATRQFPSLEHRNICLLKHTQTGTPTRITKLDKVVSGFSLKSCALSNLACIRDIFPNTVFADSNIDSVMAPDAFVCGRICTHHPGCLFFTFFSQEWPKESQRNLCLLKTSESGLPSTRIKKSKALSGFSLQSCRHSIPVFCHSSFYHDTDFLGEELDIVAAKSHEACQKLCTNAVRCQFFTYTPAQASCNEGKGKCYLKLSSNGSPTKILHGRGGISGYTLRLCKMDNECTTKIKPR
Assay: Factor XIa inhibition assay utilizing a fluorophore-quencher pair peptide substrate (FLINT)
Assay type: biochemical
Settings: read-out: FXIa Ki
Give your result as the value with the unit written after it.

Sample answers from the record:
1. COCCN1C(=O)c2c(cc(=O)n3c2CC[C@H]3c2ncc(-c3ccc(N)nc3F)[nH]2)-c2c(ccc(Cl)c2F)CC12CC2 (stereo in doubt) [Compound 25]    130 nM
2. O=C1NC2(CC2)Cc2ccc(Cl)c(F)c2-c2cc(=O)n(C(CC3CC3)c3ncc(-c4ccc(F)cc4)[nH]3)cc21 (single isomer, unassigned) [Compound 64]    564 nM
3. O=C1NC2(CC2)Cc2ccc(Cl)c(F)c2-c2cc(=O)n3c(c21)CC[C@@H]3c1ncc(-c2ccc3[nH]ncc3c2)[nH]1 (stereo in doubt) [Compound 19]    0.5 nM
4. Nc1ccc(-c2cnc([C@H]3CCc4c5c(cc(=O)n43)-c3c(ccc(Cl)c3F)CC3(CCC3)NC5=O)[nH]2)c(F)n1 (stereo in doubt) [Compound 33]    118 nM

Exam item: Form: Entry = CC1(C)Cc2ccc(Cl)c(F)c2-c2cc(=O)n3c(c2C(=O)N1)CC[C@H]3c1ncc(-c2ccc(N)nc2F)[nH]1 (single isomer, unassigned) [Compound 29] | System = Factor XIa (Homo sapiens, UniProt P03951) | Ki = ____
Marked response: 0.4 nM

Exam item: Form: Entry = O=C1NC2(CC2)Cc2ccc(Cl)c(F)c2-c2cc(=O)n3c(c21)CC[C@@H]3c1ncc(-c2ccn3cnnc3c2)[nH]1 (stereo in doubt) [Compound 18] | System = Factor XIa (Homo sapiens, UniProt P03951) | Ki = ____
Marked response: 6.6 nM

----------
Biological target: Factor XIa (Homo sapiens)
Test: Factor XIa inhibition assay utilizing a fluorophore-quencher pair peptide substrate (FLINT)
Type: biochemical
Conditions: 30 min preincubation, 5Fam-KLTRAETV-K5Tamra substrate 15 μM final, kinetic reads; read-out: FXIa IC50
observation_type: pIC50
The read-out pIC50 is expressed as -log10 of concentration in moles per litre.

1. Nc1ccc(-c2cnc(C3CCc4c5c(cc(=O)n43)-c3c(ccc(Cl)c3F)CC3(CC3)NC5=O)[nH]2)c(F)n1 (single isomer, unassigned) [Compound 55]    9.52
2. Nc1ccc(-c2cnc(C3CCc4c5c(cc(=O)n43)-c3cc(Cl)ccc3CC3(CC3)NC5=O)[nH]2)c(F)n1 (stereo not drawn) [Compound 2]    8.52

Lab note: next molecule to report on.
Exam item: Which value of pIC50 has been reported for O=C1NC2(CC2)Cc2ccc(Cl)c(F)c2-c2cc(=O)n3c(c21)CCC3c1ncc(-c2ccn3c(Br)cnc3c2)[nH]1 (single isomer, unassigned) [Compound 72] in the records?
Marked response: 7.57

----------
Molecular target: Factor XIa (Homo sapiens, UniProt P03951)
Assay: Factor XIa inhibition assay utilizing a fluorophore-quencher pair peptide substrate (FLINT)
Assay type: biochemical
Details: cells that print μM themselves in the nM column; read-out: FXIa Ki
Collected Ki values appear next to each entry.
Kindly answer with a numeric value in µM, unit omitted.

Sample answers from the record:
1) O=C1NC2(CC2)Cc2ccc(Cl)c(F)c2-c2cc(=O)n3c(c21)CC[C@@H]3c1ncc(-c2ccc3cncn3c2)[nH]1 (stereo in doubt) [Compound 22]    2.54
2) Cn1ccc(-c2cnc(C(CC3CC3)n3cc4c(cc3=O)-c3c(ccc(Cl)c3F)CC3(CC3)NC4=O)[nH]2)cc1=O (single isomer, unassigned) [Compound 68]    1.12
3) Cc1nc2cc(-c3cnc([C@@H]4CCc5c6c(cc(=O)n54)-c4c(ccc(Cl)c4F)CC4(CC4)NC6=O)[nH]3)ccc2s1 (stereo in doubt) [Compound 4]    1.15
4) O=C1NC2(CC2)Cc2ccc(Cl)c(F)c2-c2cc(=O)n3c(c21)CC[C@H]3c1ncc(-c2ccn3cnnc3c2)[nH]1 (stereo in doubt) [Compound 15]    2.91
5) O=C1NC2(CC2)Cc2ccc(Cl)c(F)c2-c2cc(=O)n3c(c21)CC[C@H]3c1ncc(-c2ccc3scnc3c2)[nH]1 (stereo in doubt) [Compound 27]    1.19

Exam item: Form: Entry = CC1(C)Cc2ccc(Cl)c(F)c2-c2cc(=O)n3c(c2C(=O)N1)CC[C@H]3c1ncc(-c2ccc(N)nc2F)[nH]1 (single isomer, unassigned) [Compound 20] | System = Factor XIa (Homo sapiens, UniProt P03951) | Ki = ____
Marked response: 3.83

Exam item: Form: Entry = Nc1ccc(-c2cnc([C@@H]3CCc4c5c(cc(=O)n43)-c3c(ccc(Cl)c3F)CC3(CC3)N(CCO)C5=O)[nH]2)c(F)n1 (single isomer, unassigned) [Compound 9] | System = Factor XIa (Homo sapiens, UniProt P03951) | Ki = ____
Marked response: 3.29
